This collection of values is drawn from the supplement of paper PMC13380429.

System: Vero E6 infected with SARS-CoV-2
Experiment: morphology score (similarity to uninfected cells); higher = more like uninfected cells
Details: 24 h
Entries and their morphology score
Please respond with just the number, no unit label.

# count of solved cases: 8
COMPOUND	RESULT NUMBER
CCOc1ccccc1-n1c(C(C)N2CCN(C(=O)COc3ccc(Cl)cc3)CC2)nc2ccccc2c1=O (stereo unspecified) [erastin] (0.833333 µM)	-0.0506
CCCC[C@H](NC(=O)[C@@H]1[C@@H]2[C@H](CN1C(=O)[C@@H](NC(=O)NC1(CS(=O)(=O)C(C)(C)C)CCCCC1)C(C)(C)C)C2(C)C)C(=O)C(=O)NC1CC1 [narlaprevir] (10 µM)	0.157
O=C(Oc1cccc2cccnc12)c1ccccc1 [benzoxiquine] (10 µM)	0.116
CCCN1CCC[C@@H]2Cc3nc(N)ncc3C[C@H]21 [quinelorane] (10 µM)	0.13
Cc1ccc(-c2n[nH]c3c2C(c2cccc(O)c2)N(c2ccc(C(=O)O)cc2)C3=O)cc1 (stereo unspecified) (10 µM)	0.169
CN1CCCC(CN2c3ccccc3Sc3ccccc32)C1 (stereo unspecified) [mepazine] (10 µM)	0.538
CS(=O)(=O)N1CCN(Cc2cc3nc(-c4cccc5[nH]ncc45)nc(N4CCOCC4)c3s2)CC1 (10 µM)	-0.319
COc1cc2c(c(OC)c1OC)-c1ccc(OC)c(=O)cc1[C@@H](NC(C)=O)CC2 [colchicine] (10 µM)	-0.0542

So for Cc1ccc(-c2ncn(-c3ccc(Nc4nccc(-c5cccc(N6CCOCC6)c5)n4)cc3)n2)cn1 (10 µM) , the logged morphology score turned out to be -0.292

For this compound ( Cc1[nH]c2ccc(O)cc2c1CCN [2-methyl-5-hydroxytryptamine] (10 µM) ), measured morphology score is 0.00237
